# test: Healthy volunteers, single-dose arm, sc
# Format: in vivo
# measurementParameters: both, human, plasma, sc, 0.5 mg
outcomeMeasure: AUC(0-t) (ng·h/mL)
Please respond with the number in ng·h/mL and leave the unit unwritten.

Req: Given the compound CCCC[C@H](NC(C)=O)C(=O)N[C@H]1CCC(=O)NC[C@@H](C(=O)N[C@@H](Cc2c[nH]c3ccccc23)C(N)=O)NC(=O)[C@H](CCCNC(=N)N)NC(=O)[C@@H](Cc2ccccc2)NC(=O)[C@H](Cc2c[nH]cn2)NC1=O , write its reported AUC(0-t).
Resp: 19.9

----------
# test: Healthy volunteers, single-dose arm, sc
# Type: in vivo
# measurementParameters: both, human, plasma, sc, 0.1 mg
outcomeMeasure: tmax (min)
Report the figure in min without appending any unit label.

Req: Give reported tmax value for CCCC[C@H](NC(C)=O)C(=O)N[C@H]1CCC(=O)NC[C@@H](C(=O)N[C@@H](Cc2c[nH]c3ccccc23)C(N)=O)NC(=O)[C@H](CCCNC(=N)N)NC(=O)[C@@H](Cc2ccccc2)NC(=O)[C@H](Cc2c[nH]cn2)NC1=O
Resp: 36
